MEASURED_ON: BRD4 BD2 L/V (Homo sapiens, UniProt O60885, L387V)
TEST_DESCRIPTION: competitive AlphaLISA
Type: binding
hey, just use satisfied if measured IC50 is less than 1 µM, otherwise not satisfied

>>> class("CC[C@@H](C(=O)OC)[C@@H]1N=C(c2ccc(Cl)cc2)c2cc(OC)ccc2-n2c(C)nnc21 (relative stereo)")
"satisfied"
>>> class("C=CC[C@@H](C(=O)NCC)[C@@H]1N=C(c2ccc(Cl)cc2)c2cc(OC)ccc2-n2c(C)nnc21 (relative stereo)")
"not satisfied"
>>> class("C=CC[C@@H](C(=O)OC)[C@@H]1N=C(c2ccc(Cl)cc2)c2cc(OC)ccc2-n2c(C)nnc21 (racemic)")
"satisfied"
>>> class("CC[C@@H](C(=O)N(CC)CC)[C@@H]1N=C(c2ccc(Cl)cc2)c2cc(OC)ccc2-n2c(C)nnc21 (relative stereo)")
"not satisfied"
>>> class("CC[C@@H](C(=O)OC(C)(C)C)[C@@H]1N=C(c2ccc(Cl)cc2)c2ccc(OC)cc2-n2c(C)nnc21")
"not satisfied"
>>> class("CCN(CC)C(=O)[C@H](C)[C@@H]1N=C(c2ccc(Cl)cc2)c2cc(OC)ccc2-n2c(C)nnc21 (relative stereo)")
"not satisfied"
>>> class("CC[C@@H](C(=O)OC)[C@@H]1N=C(c2ccc(Cl)cc2)c2ccc(OC)cc2-n2c(C)nnc21 (racemic)")
"satisfied"
>>> class("CC[C@@H](C(=O)OC(C)(C)C)[C@@H]1N=C(c2ccc(Cl)cc2)c2cc(OC)ccc2-n2c(C)nnc21")
"not satisfied"

Here's the next entry for you.
# input Is IC50 strictly under 1 µM for the entry CCNC(=O)[C@H](C)[C@@H]1N=C(c2ccc(Cl)cc2)c2ccc(OC)cc2-n2c(C)nnc21 (relative stereo) ?
# output not satisfied
